test: protein stability index of a GFP-peptide fusion (GPS, HEK-293T) (PSI 1-6); higher = more stable; conditions: treatment: DMSO; c terminus: a fixed tail appended;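 further: 24-mer peptide tiles fused after GFP, lentivirally expressed, FACS-sorted into six equal bins by GFP/DsRed ratio, decoded by Illumina sequencing, PSI is the read-weighted mean bin number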
Lab note: compare protein stability index against 3. Equal or greater, write 1. Smaller, write -1.

| CHAIN | LABEL_VALUE |
| --- | --- |
| MPATPSLKVVHELPACTLCAGPLE [TRIM15] | 1 |

q: Has WELVVLGKLKWNLAAVTPHDFIEH [CCND2] a recorded protein stability index greater than or equal to 3?
a: -1

q: Determine whether this sequence has protein stability index no lower than 3: KSHFQNSREWSGKEKWWDGQRDRK [PBXIP1]
a: 1

q: Test whether the sequence SSSSSSSWLTRRAIRPENRAPGAG [EMD] records protein stability index of 3 or higher.
a: 1

q: I'd appreciate it if you could say whether RVAAAAGSGPSPPGSPGHDRERQP [PI4K2A] has protein stability index at least equal to 3.
a: 1

q: Identify whether the reported protein stability index of the following sequence is 3 or greater: NFIGRQWEISDDYPSLQAMGWFNN [CRYBA1]
a: -1

q: Does the sequence FIMDSCDELIPEYLNFIRGVVDSE [HSP90AB1] have recorded protein stability index that is 3 or more?
a: -1

q: // inclusive: protein stability index at least 3? input: KCFSCNSNLHRHQRTHTGEKPYKC [ZNF263]
a: 1

----------
assay: protein stability index of a GFP-peptide fusion (GPS, HEK-293T) (PSI 1-6); higher = more stable; conditions: treatment: MLN4924 1 uM, 8 h; c terminus: a fixed tail appended
# binarize protein stability index: threshold 4 inclusive, high side class 1, low side class 0

| CHAIN | LABEL_VALUE |
| --- | --- |
| ELNKKMTNIRLPNVPSSSLPAQPN [CHMP4C] | class 0 |

q: Exam item: decide whether the reported protein stability index for NFSAAKSLLNKKADGVKPQTNSTK [CAMK2B] is at least 4.
a: class 1

q: Determine whether measured protein stability index meets or exceeds 4 for FARFCKSQESALGNTVPAVEPGTP [DNAAF3]
a: class 0

q: Tell me whether protein stability index is at least 4 here: DLMGVLTKGVREVERALQLPREPG [FEM1A]
a: class 0

----------
assay: protein stability index of a GFP-peptide fusion (GPS, HEK-293T) (PSI 1-6); higher = more stable; settings: treatment: DMSO; c terminus: a fixed tail appended
Decide using protein stability index: a value greater than or equal to 3 is rule met, a smaller one is rule not met.

These recorded examples may help you get a feel for the data.
| CHAIN | LABEL_VALUE |
| --- | --- |
| HWDGYSKGVNRKLGRTGLYPSYKV [FUT8] | rule not met |
| RSGAGVALLNDHIYVVGGFDGTAH [KLHL12] | rule not met |
| KTIEDLRNKIIAATIENAQPILQI [KRT16] | rule not met |

q: Is protein stability index at least 3? Consider LRTHIDAIILALPEDLQGILLKTG [DENND6A]
a: rule not met

q: Does the sequence KVTGYLISYSSMLGAVAGLALGPI [MFSD9] have recorded protein stability index that is 3 or more?
a: rule met

q: protein stability index >= 3 for VSSSEQLQSYQAEIIELRRTVNAL [KRT33B] ?
a: rule met

q: Determine whether this sequence has protein stability index no lower than 3: YGGRSVAPQNSFSAKLAPHYFHSI [KCNK9]
a: rule not met

q: Check if protein stability index >= 3 (inclusive). Item: CLMIAAYKGHTDVVRYLLEQRADP [FEM1B]
a: rule not met

q: Textbook exercise: given the entry VMKLEISPHRKRSDDSDEDEPCAI [DLC1] , state whether its protein stability index is greater than or equal to 3.
a: rule met

q: Item LPELKANPFKERICRVFSTSPAKD [CIB1] with protein stability index of 3 or above?
a: rule met

q: Record PFHEMFVSRGGHGQQDLFRVLKAY [TBC1D10A] ; criterion: protein stability index no lower than 3. Met?
a: rule not met

q: Would you say DDVISRIDRMFPEMSIHLSRPNGT [MED27] shows protein stability index at minimum 3?
a: rule met

q: Does the reported protein stability index for TCVVPFDSEEEVIERANNVKYGLA [ALDH8A1] fall at or above the 3 mark?
a: rule met

q: Hello, I need to know if VCGKSFSRTTCLFLHLRTHTEERP [ZNF8] has measured protein stability index not below 3. Thanks!
a: rule not met

q: Does the sequence AVVVLDQGSRHWQKLREESAARVV [DUSP5] have recorded protein stability index that is 3 or more?
a: rule not met

q: // inclusive: protein stability index at least 3? input: PPITEVESQVFSEKLATDTSTFEA [ZNF232]
a: rule met

q: Is it the case that ITGAYDTIKHPGGAGAEESELQAY [MCOLN1] has protein stability index reaching or exceeding 3?
a: rule met

q: Given the entry EGRKKAFSTCGSHLTVVAIFYGSG [OR3A1] , answer whether its protein stability index meets or surpasses 3.
a: rule not met

q: Does protein stability index meet or surpass 3 for ARYGHLDVVEYLVDRCGASVEAGG [FEM1A] ?
a: rule not met

q: Could you tell me if the measured protein stability index of QLTKASLKPRGCSKPPWRPPGGKL [SPACA9] reaches 3 or more?
a: rule not met

q: Check if protein stability index >= 3 (inclusive). Item: RGDSVKVENPSTASHSLSPSEHVQ [ZNF649]
a: rule met

q: hey, is protein stability index for this one >= 3? VGGYGTRLRPLTLSTPKPLVDFCN [GMPPB]
a: rule not met

q: // inclusive: protein stability index at least 3? input: GFLTVTNLGVENMNHYKKTTLEIH [PTPN9]
a: rule not met

q: Does the sequence RARLDSMVLLIMKLDQLDQDIENA [DLC1] have recorded protein stability index that is 3 or more?
a: rule not met

q: Kindly determine if protein stability index recorded for ALQSRAAQRHRGSAKDGGPQPPDA [PLEKHN1] is above or exactly 3.
a: rule met

----------
Recorded measurements of protein stability index, one per entry
assay: protein stability index of a GFP-peptide fusion (GPS, HEK-293T) (PSI 1-6); higher = more stable; details: treatment: DMSO; c terminus: a fixed tail appended
Write no unit; give the number alone.

| CHAIN | QUANTITATIVE_RESULT |
| --- | --- |
| SRSHDRLPYQRRYRERRDSDTYRC [CLK3] | 4.09 |
| PLPAAAVVHVSFPEVTSALLESLN [ZBTB22] | 2.41 |
| ALQNKDTYEPFCKVPVITSSKEEQ [KCTD10] | 4.4 |
| ADAAEDEEVDVTSVDPIAAFCSSD [RBBP5] | 5.57 |
| NTLKRENSSPRVMQRKQSLGKPDQ [DLC1] | 4.85 |
| CPTEPPDDSCQDQPGTNCALAIKV [ADAMTSL2] | 4.95 |

Reported protein stability index for MTSLTQRSSGLVQRRTEASRNAAD [GOLPH3] was 4.89

Reported protein stability index of QDGVSCLNIVERYDPKENKWTRVA [KLHL20] : 3.98

Kindly note the recorded protein stability index for LSPISHGNTIALFFRSLLPNYTME [TCF25] , which is 3.25

# protein stability index of LMAGCIQEARERWNFDFVTETPLE [CDKN1A] = 2.84

Just so you know, measured protein stability index for LIGDFSKGYLFHTVAGKHQDLKYI [CDC25A] came out at 2.02

----------
In this section, each of the sequences is paired with its reported protein stability index.
experiment: protein stability index of a GFP-peptide fusion (GPS, HEK-293T) (PSI 1-6); higher = more stable; conditions: treatment: DMSO; c terminus: a fixed tail appended
Could you keep your reply to the number by itself?

| CHAIN | protein stability index |
| --- | --- |
| ADGVKPQTNSTKNSAAATSPKGTL [CAMK2B] | 5.24 |

protein stability index reading for WIIKSNYQGLPVRCVKSIIRQVLQ [SRPK2] : 2.75

Memo: DLSDLLQVDSLRPASFPTWGCDLG [BRF1] , reported protein stability index: 2.53

Given item CVDRQEVAEITKQLPPVVPVSKPG [TCAP] , the value recorded as its protein stability index is 4.7

Looking up EKKLFECLTCGKSFRQGMHLTRHQ [ZNF263] , I found its protein stability index recorded as 2.1

Entry LEDLKDQIAQLEASLAAAKKQLAD [LMNB1] — recorded protein stability index = 5.3

Reported protein stability index ( LDSCNSLTPKSTPVKTLPFSPSQF [MYBL2] ) = 3.34

What the record says about EGHHHDVVACDFSPDGALLATASY [WSB1] : protein stability index is 3.9

Record summary for EEAWVKIENLAKANPQYTVYSQAS [PPP2R5C] : reported protein stability index = 3.29

Short answer for CGSFQVTTGLQVPSAVRCLQKRGS [FSD1] : protein stability index was 2.96

Lab note: measured protein stability index of SGFSARERLERAVSDRLAPGAPRG [MYCL] was 4.13

Record GKAFPSGCSAVSEPASESVVGALP [TRAF3IP2] , field protein stability index: 4.33

// recorded protein stability index for CMYEHGEDTHQSPEPEDEPGGPGA [RSPH3] : 5.42

The reported protein stability index of the sequence FDVHPPLGKMLIGLAGYLSGYDGT [POMT2] was 2.18

// field: protein stability index; key: SGRPHLPGKKKIRWDPVRRRFIQS [KLHDC10] ; value = 3.35

Value of protein stability index reported for the sequence QQAALPRLSRRMASQHSYPLNRFS [CBY2] is 3.38

Kindly note the recorded protein stability index for GMADVGTVCDPARSCAIVEDDGLQ [ADAMTS4] , which is 4.62

Values from the supplement of paper PMC10567573
